- System: M14 melanoma
- ASSAY_INFO: NCI-60 one-dose screen, 48 h
- MEASUREMENT_SETUP: 10 µM unless noted
- Procedure: Growth inhibition of the M14 human tumor cell line is measured as a screen for anti-cancer activity. Cells are grown in 96 well plates and exposed to the test compound for 48 hours. Compounds are tested at a single concentration, which is 10^-5 M for most compounds. The reported endpoint is percent growth (GI% or GIPRCNT), where numbers from 0 - 100% represent growth inhibition, and numbers from -100% - 0 represent cell death. For example, a value of 40 represents 60% growth inhibition. […]
About 83,000 compounds went through this panel and 20% of them were active in at least one assay; those are over-represented in the sample as a whole. Active and inactive are the calls of the source. Rule for the calls: active = growth percent below 10; inactive = the rest.
Pick one and only one: true (1) = active, false (0) = inactive

Take a look at these entries with their results.
# SMILES_REPRESENTATION, CATEGORY_LABEL
rows = [
    ("O=C(CN1CCCCC1)Nc1ccc2oc(=O)ccc2c1", "false (0)"),
    ("N#Cc1c(-c2ccc(Cl)cc2)nc(N/N=C/c2cccc(Br)c2)nc1N1CCOCC1", "false (0)"),
    ("COc1cc(/C=C/c2cc(O)c3cc(C(C)=O)c(=O)oc3c2)cc2c1O[C@]1(C)CC[C@@H](O)C(C)(C)[C@H]1C2", "true (1)"),
    ("COc1cc(/C=C/C(=O)Nc2cccnc2Nc2ccc(F)cc2)cc(OC)c1OC", "false (0)"),
]

## Input Please state the recorded outcome for this molecule: Cn1c(O)c(N=NC(=O)c2cc(-c3ccccc3)on2)c2ccccc21
## Output false (0)

## Input Same read-out for CCCSc1ccc2nc(NC(=O)OC)[nH]c2c1 ?
## Output true (1)

## Input Same read-out for COc1cccc(/C=C2\Oc3cc(OCCN4CCCC4)ccc3C2=O)c1 ?
## Output false (0)

## Input Same read-out for COc1ccc(-c2nc3ccc(-c4nc5ccc(N6CCN(c7ccc(F)cc7)CC6)cc5[nH]4)cc3[nH]2)cc1OC ?
## Output false (0)

## Input Same read-out for NC(=NCCCOc1ccc(Cl)cc1)Nc1ccc(C(F)(F)F)cc1 ?
## Output true (1)

## Input Same read-out for COc1ccc(S(=O)(=O)N2CCCCC2)cc1NC(=O)c1[nH]c(C)c2c1CCCCC2=O ?
## Output false (0)

====

- Tested on: TK-10 renal
- ASSAY_INFO: NCI-60 one-dose screen, 48 h (100 = growth as untreated, 0 = no growth, -100 = all killed)
- MEASUREMENT_SETUP: 10 µM unless noted
Compounds without any hit were thinned out: in the full panel of roughly 83,000, 20% have a hit.
EXPERIMENTAL_READOUT: growth (%)
Return type: number; implicit unit %.

Would you please look over these solved cases?
# MOLECULE, growth [%]
records = [
    ("CC(=O)NCC1c2c(n(C)c3c(Cl)c(Cl)ccc23)C(=O)NC1(C)C (configuration not stated)", 89.5),
    ("C=C(C)C(=O)Nc1ccc(NC(C)C)cc1", 138),
    ("CSc1nc(NCCN2CCOCC2)c(C#N)c(-c2cccc([N+](=O)[O-])c2)n1", 135),
]

## Input What measured growth goes with FC(F)(F)c1[nH]ncc1-c1nc2ccc3n[nH]c(C#Cc4cccnc4)c3c2c2c1CCCC2 ?
## Output 46.4

## Input Same read-out for CC1=CC(C)(C)Nc2ccc(Cc3ccc4c(c3)C(C)=CC(C)(C)N4)cc21 ?
## Output 112

## Input Same read-out for COc1ccc2c(c1)c(-c1nonc1-c1cn(C)c3ccccc13)cn2C ?
## Output 59.2

## Input Same read-out for O=C(Cn1cccc(Nc2ccccc2)c1=O)Nc1ccccc1 ?
## Output 107

## Input Same read-out for CC1=C[C@H]2c3c(c(O)c(O)c4oc(-c5ccccc5)cc(=O)c34)[C@H](c3cc(O)c(O)c4oc(-c5ccccc5)cc(=O)c34)[C@H]2C(C)(C)C1 ?
## Output 28.4

## Input Same read-out for COc1cc(-c2nc3ccccc3[nH]2)ccc1OCc1nnc(-c2ccc(CC(C)C)cc2)o1 ?
## Output 115

## Input Same read-out for CCCOc1cc2ccccc2cc1C(=O)Nc1nc(N)c2c(ccc3nccc32)[nH]1 ?
## Output -37.3

## Input Same read-out for O=C(CN1CCCCC1)Nc1ccc2oc(=O)ccc2c1 ?
## Output 108

## Input Same read-out for O=C1/C(=C/c2ccc3c(c2)OCO3)SC(=S)N1CCc1ccc(O)cc1 ?
## Output 81.3

## Input Same read-out for COc1ccc(-c2n[nH]nc2-c2csc3ccccc23)cc1OC ?
## Output 53.2

## Input Same read-out for COc1ccc(CCNc2nc3c(c(=O)n(Cc4ccc(Br)cc4)c(=O)n3C)n2C)cc1OC ?
## Output 111

## Input Same read-out for N=C(N)c1ccc(-c2ccc(-c3ccc4ccccc4c3)s2)s1 ?
## Output 19

## Input Same read-out for COc1cc(/C=C/C(=O)Nc2cccnc2Nc2ccc(F)cc2)cc(OC)c1OC ?
## Output 103

## Input Same read-out for CNc1ccc(-c2cc(=O)oc3ccc(Cl)cc23)cc1 ?
## Output 50

## Input Same read-out for O=C1OC(c2ccccc2)C(O)=C1c1ccccc1 (configuration not stated) ?
## Output 110

## Input Same read-out for Cc1ccc(/C=C2\SC(=S)N(CC(=O)NCCCN3CCOCC3)C2=O)cc1 ?
## Output 117

## Input Same read-out for COc1ccc2c(c1)O/C(=C\c1cccc(OCC(=O)Nc3nc4c(s3)CCCC4)c1)C2=O ?
## Output 115

## Input Same read-out for Cc1ccccc1COc1ccc(-c2onc(C)c2-c2ccc(Cl)cc2)cc1 ?
## Output 84.3

## Input Same read-out for COc1cc2c(cc1-c1c(C)noc1C)ncc1nc(C3CCC(F)(F)CC3)n([C@H](C)COC(F)F)c12 ?
## Output 27.1

## Input Same read-out for Cc1nc(/N=C(\N)NC(=O)Nc2cccc([N+](=O)[O-])c2)sc1C ?
## Output 110

## Input Same read-out for CC(=O)c1nc2ccccc2n1CC(=O)c1cccc(Cl)c1 ?
## Output 34.3

## Input Same read-out for CSc1ccc(-c2n[nH]nc2-c2cc3ccccc3s2)cc1 ?
## Output 84.2

## Input Same read-out for CCCCCC(=O)Oc1ccc(/C(=C(\C)c2ccc(OC)cc2)c2ccc(OCCN3CCCCC3)cc2)cc1 ?
## Output 92.7

## Input Same read-out for O=C(COc1cccc(/C=C2\COc3ccccc3C2=O)c1)Nc1nccs1 ?
## Output 64.2

## Input Same read-out for Cc1cc(N2CCCCCC2)nc(NC2CCCC(Nc3ccnc4cc(Cl)ccc34)C2)n1 (configuration not stated) ?
## Output -81.2
